Origin of measurements: PubChem BioAssay AID939

biological target: Thyrotropin receptor (Homo sapiens) (UniProt P16473); assay: Confirmation Concentration-Response Assay for Agonists of the Thyroid Stimulating Hormone Receptor; conditions: HEK293 TSHR-CNG cells, membrane potential dye, cAMP; series mostly up to 25.6 µM; as to activation: % of control where 0% means no effect
Sequence (P16473 whole entry, looked up): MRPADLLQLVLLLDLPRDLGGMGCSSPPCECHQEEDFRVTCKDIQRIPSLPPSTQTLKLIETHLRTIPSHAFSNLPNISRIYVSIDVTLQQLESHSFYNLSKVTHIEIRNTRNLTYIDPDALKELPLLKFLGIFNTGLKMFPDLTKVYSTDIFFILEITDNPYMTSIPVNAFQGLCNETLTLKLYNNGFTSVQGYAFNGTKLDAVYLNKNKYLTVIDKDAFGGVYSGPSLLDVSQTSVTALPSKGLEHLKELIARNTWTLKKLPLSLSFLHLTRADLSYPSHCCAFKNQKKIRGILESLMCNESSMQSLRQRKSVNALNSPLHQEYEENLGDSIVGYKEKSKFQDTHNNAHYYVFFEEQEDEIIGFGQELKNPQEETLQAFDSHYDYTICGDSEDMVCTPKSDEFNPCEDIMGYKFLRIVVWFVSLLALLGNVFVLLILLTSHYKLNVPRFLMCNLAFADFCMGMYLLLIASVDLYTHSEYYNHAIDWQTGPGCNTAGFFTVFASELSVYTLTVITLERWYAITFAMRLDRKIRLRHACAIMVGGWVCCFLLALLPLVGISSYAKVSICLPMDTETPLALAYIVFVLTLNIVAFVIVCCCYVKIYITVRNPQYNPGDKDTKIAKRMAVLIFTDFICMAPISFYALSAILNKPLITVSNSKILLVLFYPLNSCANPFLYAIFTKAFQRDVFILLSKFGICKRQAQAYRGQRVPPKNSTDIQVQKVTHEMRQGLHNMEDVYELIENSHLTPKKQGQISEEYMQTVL
Inconclusive results are not listed. Calls of active or inactive are those of the source. Calls follow the shape of the dose curve; as a rule, active = well fitted activation curve with a large enough effect in the main read-out, with a control signal flat; inconclusive = small, poorly fitted or top-dose-only effect, or effect the other way, or a change in a side signal; inactive = no such curve, though single readings can be large or run the other way.
Possible outcomes: yes = active, no = inactive

{"COMPOUND": "Cn1c(=O)[nH]c(=O)c2c1nc(N1CCCCCC1)n2CCCSc1nc2ccccc2o1", "CAT": "no"}
{"COMPOUND": "Cc1cc(Cl)c(S(=O)(=O)Nc2ccc3c(c2)OCO3)cc1OCC(N)=O", "CAT": "no"}
{"COMPOUND": "COCCNC(=O)C(c1ccccc1)N(Cc1cccs1)C(=O)Cn1nnc2ccccc21 (stereo not drawn)", "CAT": "no"}
{"COMPOUND": "Cc1ccc(N(CC(=O)NCc2ccco2)S(=O)(=O)c2ccccc2)cc1", "CAT": "yes"}
{"COMPOUND": "O=C1c2ccccc2C(=O)N1Cc1nc(-c2ccccc2)no1", "CAT": "no"}
{"COMPOUND": "Cc1nc2ccc(Br)cn2c(=O)c1Cl", "CAT": "no"}
{"COMPOUND": "Cc1occc1-c1nnc(SCC(=O)Nc2ccccc2)n1C(C)c1ccccc1 (stereo not drawn)", "CAT": "yes"}
{"COMPOUND": "O=C(CN(Cc1ccccc1Cl)C(=O)Cn1nnc(-c2cccs2)n1)NCC1CCCO1 (stereo not drawn)", "CAT": "no"}

---

target: Thyrotropin receptor (Homo sapiens) (UniProt P16473); experiment: Confirmation Concentration-Response Assay for Agonists of the Thyroid Stimulating Hormone Receptor; details: HEK293 TSHR-CNG cells, membrane potential dye, cAMP; series mostly up to 25.6 µM; also: potency is read from the fitted curve at half-maximal effect; as to activation: % of control where 0% means no effect
Records with an inconclusive call do not appear. Activity calls are given as the source filed them. The call rests on the fitted dose curve; in most records, active means well fitted activation curve with a large enough effect in the main read-out, with a control signal flat; inconclusive means small, poorly fitted or top-dose-only effect, or effect the other way, or a change in a side signal; inactive means no such curve, though single readings can be large or run the other way.

{"SMILES ENTRY": "COc1cc(OC)cc(-c2nnc(SCC(=O)N(C(C)C)C(C)C)o2)c1", "MEASUREMENT TARGET": "Thyrotropin receptor (Homo sapiens) (UniProt P16473)", "Potency": "12.6 µM (active)"}
{"SMILES ENTRY": "O=C(COC(=O)C12CC3CC(CC(C3)C1)C2)NCc1ccco1", "MEASUREMENT TARGET": "Thyrotropin receptor (Homo sapiens) (UniProt P16473)", "Potency": "2 µM (active)"}
{"SMILES ENTRY": "Cc1cccc(NC(=O)CSc2nnc(-c3ccccc3)n2N)c1C", "MEASUREMENT TARGET": "Thyrotropin receptor (Homo sapiens) (UniProt P16473)", "Potency": "inactive"}
{"SMILES ENTRY": "CCN(c1ccccc1)S(=O)(=O)c1ccc(Oc2ccc(-n3ccnc3)cc2)nc1", "MEASUREMENT TARGET": "Thyrotropin receptor (Homo sapiens) (UniProt P16473)", "Potency": "inactive"}
{"SMILES ENTRY": "CCn1c(=O)c(C(=O)CN2CCCc3ccccc32)c(N)n(Cc2ccccc2)c1=O", "MEASUREMENT TARGET": "Thyrotropin receptor (Homo sapiens) (UniProt P16473)", "Potency": "inactive"}

---

molecular target: Thyrotropin receptor (Homo sapiens); experiment: Confirmation Concentration-Response Assay for Agonists of the Thyroid Stimulating Hormone Receptor; settings: HEK293 TSHR-CNG cells, membrane potential dye, cAMP; series mostly up to 25.6 µM; as to activation: % of control where 0% means no effect
Records with an inconclusive call do not appear. Active and inactive are the calls of the source. Calls come from the whole dose curve; as a rule, active = well fitted activation curve with a large enough effect in the main read-out, with a control signal flat; inconclusive = small, poorly fitted or top-dose-only effect, or effect the other way, or a change in a side signal; inactive = no such curve, though single readings can be large or run the other way.
Possible outcomes: true = active, false = inactive

{"MOLECULE": "Cn1cccc1Cc1nnc(SCC(N)=O)n1CCc1ccccc1", "CAT": "false"}
{"MOLECULE": "COc1cccc(C(c2nnnn2Cc2ccccc2)N2CCN(C(=O)c3ccco3)CC2)c1OC (centres undefined)", "CAT": "false"}
{"MOLECULE": "CN1C(=O)N(C)C2(c3ccccc3)Nn3c(s/c(=C/c4ccco4)c3=O)=NC12c1ccccc1 (centres undefined)", "CAT": "false"}
{"MOLECULE": "Cc1cnc(NC(=O)c2ccc3c(c2)C(=O)N(Cc2ccco2)C3=O)s1", "CAT": "false"}
{"MOLECULE": "Oc1ccccc1-c1cc(C(F)(F)C(F)F)nc(-c2ccccc2)n1", "CAT": "true"}
{"MOLECULE": "CCCC(=O)C1=C(SCC)CC(C)(C)C(C(=O)OC)C1=O (centres undefined)", "CAT": "false"}
{"MOLECULE": "CC(c1ccco1)N(C(=O)c1ccc(Cl)s1)c1ccccn1 (centres undefined)", "CAT": "true"}
{"MOLECULE": "Cc1ccc(-n2nc(-c3ccc(N)cc3)cc2N)cc1", "CAT": "false"}
{"MOLECULE": "O=c1c2ccccc2ncn1-c1ccc2c(c1)OCCO2", "CAT": "false"}
{"MOLECULE": "COc1ccc(CNc2nc(SC)n[nH]2)cc1OC", "CAT": "false"}
{"MOLECULE": "CC(C)CC(=O)Nc1cccc(-c2cn3ccsc3n2)c1", "CAT": "false"}
{"MOLECULE": "Cc1nn(-c2ccccc2)c(N2CCCC2)c1/C=N/n1cnc2scc(-c3ccccc3)c2c1=O", "CAT": "true"}
{"MOLECULE": "CCc1ccc(-c2nc(CN3CCC(C(=O)N4CCN(c5ccccc5)CC4)CC3)c(C)o2)cc1", "CAT": "false"}
{"MOLECULE": "CSc1nc(NC(C)(C)C)nc(Oc2ccc(=O)[nH]n2)n1", "CAT": "false"}

---

Parameter: max response. Scope: all listed entries.
test: Confirmation Concentration-Response Assay for Agonists of the Thyroid Stimulating Hormone Receptor; details: HEK293 TSHR-CNG cells, membrane potential dye, cAMP; measured here: parental HEK293 counter-screen max
Records with an inconclusive call do not appear.

{"COMPOUND": "Nc1cc(CN2C(=O)c3ccccc3C2=O)cc(Cl)c1O", "UNIT ABBREVIATION": "%", "max response": 4.5}
{"COMPOUND": "Cc1cnc(NC(=O)c2ccc3c(c2)C(=O)N(Cc2ccco2)C3=O)s1", "UNIT ABBREVIATION": "%", "max response": -10.7}
{"COMPOUND": "COC(=O)c1cc(NC2c3ccccc3C(=O)N2c2cccnc2)cc(C(=O)OC)c1 (centres undefined)", "UNIT ABBREVIATION": "%", "max response": 17.7}
{"COMPOUND": "Oc1ccccc1-c1cc(C(F)(F)C(F)F)nc(-c2ccccc2)n1", "UNIT ABBREVIATION": "%", "max response": 3.44}
{"COMPOUND": "Cc1ccccc1NC(=O)N1C2CCCC1CC(NC(=O)C1CC1)C2 (centres undefined)", "UNIT ABBREVIATION": "%", "max response": 20.1}
{"COMPOUND": "Cc1occc1-c1nnc(SCC(=O)NCc2ccc3c(c2)OCO3)n1CC(C)C", "UNIT ABBREVIATION": "%", "max response": 9.78}
{"COMPOUND": "CCS(=O)(=O)N1CCN(C(C)CCc2ccccc2)CC1 (centres undefined)", "UNIT ABBREVIATION": "%", "max response": -2.55}
{"COMPOUND": "CCOC(=O)CSc1nnc(NC(=O)c2cccc(S(=O)(=O)N3CCCCC3)c2)s1", "UNIT ABBREVIATION": "%", "max response": -6.14}
{"COMPOUND": "O=C1C=C(NCc2ccccc2)C2(CCCCC2)O1", "UNIT ABBREVIATION": "%", "max response": 16.9}
{"COMPOUND": "O=C(Nc1ccc(N2CCOCC2)cc1)C1CC1", "UNIT ABBREVIATION": "%", "max response": 5.07}
{"COMPOUND": "Cc1ccc(C)c(Cn2c(C(C)O)nc3ccccc32)c1 (centres undefined)", "UNIT ABBREVIATION": "%", "max response": -2.8}
{"COMPOUND": "Cc1nn(-c2ccccc2)c(N2CCCC2)c1/C=N/n1cnc2scc(-c3ccccc3)c2c1=O", "UNIT ABBREVIATION": "%", "max response": 16.6}
{"COMPOUND": "CCOC(=O)c1cnc(-n2nc(C)cc2C)nc1-n1nc(C)cc1C", "UNIT ABBREVIATION": "%", "max response": -6.3}
{"COMPOUND": "CCSCCOC(=O)C1=C(C)N(C)C(=O)NC1c1cc(OC)ccc1OC (centres undefined)", "UNIT ABBREVIATION": "%", "max response": 7.65}
{"COMPOUND": "Cc1ccccc1-c1nc(CN2CCC(C(=O)N3CCN(c4ccccn4)CC3)CC2)c(C)o1", "UNIT ABBREVIATION": "%", "max response": 17.1}
{"COMPOUND": "COCCNC(=O)C(c1ccccc1)N(Cc1cccs1)C(=O)Cn1nnc2ccccc21 (centres undefined)", "UNIT ABBREVIATION": "%", "max response": 6.98}
{"COMPOUND": "CC(c1ccco1)N(C(=O)c1ccc(Cl)s1)c1ccccn1 (centres undefined)", "UNIT ABBREVIATION": "%", "max response": 8.8}
{"COMPOUND": "C=CCn1c(COc2ccccc2F)nnc1SCC(=O)N1CC(=O)Nc2ccccc21", "UNIT ABBREVIATION": "%", "max response": -6.56}
{"COMPOUND": "CCOC(=O)C1C(=O)Nc2nc(C)nn2C1c1ccccc1 (centres undefined)", "UNIT ABBREVIATION": "%", "max response": -7.34}
{"COMPOUND": "CCc1ccccc1NC1=NCC(=O)N1Cc1ccc(OC)cc1", "UNIT ABBREVIATION": "%", "max response": -6.12}
{"COMPOUND": "O=S1(=O)N=C(Oc2ccccc2)c2ccccc21", "UNIT ABBREVIATION": "%", "max response": -6.77}
{"COMPOUND": "Cc1ccc(-n2nc(-c3ccc(N)cc3)cc2N)cc1", "UNIT ABBREVIATION": "%", "max response": -8.96}
{"COMPOUND": "CC(C)CC(=O)Nc1cccc(-c2cn3ccsc3n2)c1", "UNIT ABBREVIATION": "%", "max response": -8.65}
{"COMPOUND": "CCOC(=O)c1ccc(NC(=O)c2ccc(CN3CCOCC3)cc2)cc1", "UNIT ABBREVIATION": "%", "max response": 11}
